Each recorded value in this set is attributed to patent EP4631938A1.

- target: human recombinant 5-HT2C receptor (Homo sapiens, UniProt P28335)
- Construct: expressed in transfected cells; host or cells: Jump-In HEK cells (membrane preparation)
- Sequence (P28335 33-458): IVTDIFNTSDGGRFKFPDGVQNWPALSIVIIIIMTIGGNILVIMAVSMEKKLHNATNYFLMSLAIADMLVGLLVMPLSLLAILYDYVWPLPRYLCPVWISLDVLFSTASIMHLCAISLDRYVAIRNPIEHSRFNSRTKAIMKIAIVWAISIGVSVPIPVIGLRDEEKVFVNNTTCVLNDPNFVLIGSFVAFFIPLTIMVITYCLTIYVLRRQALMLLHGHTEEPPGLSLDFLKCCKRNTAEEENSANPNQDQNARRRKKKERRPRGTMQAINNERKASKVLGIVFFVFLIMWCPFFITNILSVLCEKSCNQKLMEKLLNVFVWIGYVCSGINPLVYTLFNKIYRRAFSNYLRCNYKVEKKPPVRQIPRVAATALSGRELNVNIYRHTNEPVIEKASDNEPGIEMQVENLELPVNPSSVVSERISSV
- test: Test Example 2: 5-HT2C receptor binding inhibition test ([3H]-Mesulergine; non-specific ligand Serotonin HCl)
- conditionSet: human serotonin 5-HT2C receptor binding activity
reportedEndpoint: Ki (nM)

// known answers, use as guide
Cn1ncc(Cl)c1-c1cc(Nc2ncc(C(F)(F)F)cc2F)c(Cl)cc1OCCO [Compound I-409]    2.12
Cc1nc(C)c(-c2cc(Nc3ncc(OCC(F)(F)C(F)(F)F)cc3Cl)ncc2OCCO)c(C)n1 [Compound I-250]    2.43
Cn1ncc(Br)c1-c1cc(Nc2ncc(OC(F)F)cc2F)ncc1OCCO [Compound I-299]    0.352
Cn1ncc(Br)c1-c1nc(Nc2ccc(Cl)cc2F)ncc1OCCO [Compound I-340]    1.38
Cc1nc(C)c(-c2cc(Nc3ncc(-c4ccc(F)cc4)cc3F)ncc2OCCO)c(C)n1 [Compound I-316]    0.864

A. Cc1cc(Cl)cnc1Nc1cc(-c2c(C)cnn2C)c(OCCO)cc1F [Compound I-172]
B. CC(C)Oc1ccc(Nc2cc(-c3c(Br)cnn3C)c(OCCO)cn2)nc1 [Compound I-182]
Of A and B , which carries the smaller reported Ki figure? State your choice using its label.
A
